# system_tested: UniProtKB Q06710
# Sequence (Q06710 whole entry): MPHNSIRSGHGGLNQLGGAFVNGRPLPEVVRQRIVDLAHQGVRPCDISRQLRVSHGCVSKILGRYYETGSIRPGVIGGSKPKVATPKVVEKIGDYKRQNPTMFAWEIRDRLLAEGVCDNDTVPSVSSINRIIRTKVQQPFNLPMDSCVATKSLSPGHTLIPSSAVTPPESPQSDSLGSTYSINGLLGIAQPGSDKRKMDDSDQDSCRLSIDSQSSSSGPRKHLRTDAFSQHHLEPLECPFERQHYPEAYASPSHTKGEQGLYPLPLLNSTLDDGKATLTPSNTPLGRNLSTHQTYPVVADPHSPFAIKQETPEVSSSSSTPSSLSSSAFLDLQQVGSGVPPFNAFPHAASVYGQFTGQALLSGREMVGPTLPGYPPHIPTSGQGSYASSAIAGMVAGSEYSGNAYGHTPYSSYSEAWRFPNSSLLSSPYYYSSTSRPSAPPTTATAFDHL
# measurement_notes: inhibitors of PAX8-driven TPO luciferase reporter, dose response, RMG-I cells, cherry-pick (AID 687027);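 also: luciferase reporter driven by Pax8 target thyroperoxidase promoter measured by SteadyGlo luminescence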
# Assay type: functional, cell-based
The source made the active and inactive calls.
Entries and their AC50 values follow.

Below: 5 compounds and their reported AC50.
> print(dat)
                                   compound  recorded.metric            result
1  O=C(C[C@H]1CC[C@@H]2[C@H](COC[C@@H](O)CN2Cc2ccc(F)cc2)O1)NCc1ccccc1Cl             AC50  41.2 µM (active)
2  C[C@@H]1CCCCO[C@H](CN(C)Cc2ccc(C(F)(F)F)cc2)[C@@H](C)CN([C@@H](C)CO)C(=O)c2cc(NS(=O)(=O)c3cccs3)ccc2O1             AC50  7.62 µM (active)
3  C[C@H]1CN([C@@H](C)CO)C(=O)Cc2cc(NC(=O)C3CC3)ccc2O[C@@H]1CN(C)Cc1ccc(-c2ccccc2)cc1             AC50  6.35 µM (active)
4  C[C@@H]1CN([C@H](C)CO)C(=O)c2cc(NC(=O)Nc3ccc(C(F)(F)F)cc3)ccc2O[C@@H](C)CCCCO[C@@H]1CN(C)C(=O)c1ccccc1             AC50  5.42 µM (active)
5  Cc1cc(N/N=C/c2ccc(O)c(C)c2O)nc(-c2ccccc2O)n1             AC50  4.54 µM (active)

Data request: Identify the measured AC50 of Cc1ccc(CCc2nnc(SCC(=O)Nc3cccc(Cl)c3)n2-c2ccccc2)o1 for UniProtKB Q06710.
Data returned: 25.4 µM (active)

Data request: Moving on to the next compound: C[C@@H]1CN([C@H](C)CO)S(=O)(=O)c2ccc(C#Cc3ccncc3)cc2O[C@H]1CN(C)C(=O)Nc1ccc2c(c1)OCO2
Data returned: 3.68 µM (active)

* * *

# system_tested: UniProtKB P49327
# Sequence (P49327 whole entry, the tested form may be a part): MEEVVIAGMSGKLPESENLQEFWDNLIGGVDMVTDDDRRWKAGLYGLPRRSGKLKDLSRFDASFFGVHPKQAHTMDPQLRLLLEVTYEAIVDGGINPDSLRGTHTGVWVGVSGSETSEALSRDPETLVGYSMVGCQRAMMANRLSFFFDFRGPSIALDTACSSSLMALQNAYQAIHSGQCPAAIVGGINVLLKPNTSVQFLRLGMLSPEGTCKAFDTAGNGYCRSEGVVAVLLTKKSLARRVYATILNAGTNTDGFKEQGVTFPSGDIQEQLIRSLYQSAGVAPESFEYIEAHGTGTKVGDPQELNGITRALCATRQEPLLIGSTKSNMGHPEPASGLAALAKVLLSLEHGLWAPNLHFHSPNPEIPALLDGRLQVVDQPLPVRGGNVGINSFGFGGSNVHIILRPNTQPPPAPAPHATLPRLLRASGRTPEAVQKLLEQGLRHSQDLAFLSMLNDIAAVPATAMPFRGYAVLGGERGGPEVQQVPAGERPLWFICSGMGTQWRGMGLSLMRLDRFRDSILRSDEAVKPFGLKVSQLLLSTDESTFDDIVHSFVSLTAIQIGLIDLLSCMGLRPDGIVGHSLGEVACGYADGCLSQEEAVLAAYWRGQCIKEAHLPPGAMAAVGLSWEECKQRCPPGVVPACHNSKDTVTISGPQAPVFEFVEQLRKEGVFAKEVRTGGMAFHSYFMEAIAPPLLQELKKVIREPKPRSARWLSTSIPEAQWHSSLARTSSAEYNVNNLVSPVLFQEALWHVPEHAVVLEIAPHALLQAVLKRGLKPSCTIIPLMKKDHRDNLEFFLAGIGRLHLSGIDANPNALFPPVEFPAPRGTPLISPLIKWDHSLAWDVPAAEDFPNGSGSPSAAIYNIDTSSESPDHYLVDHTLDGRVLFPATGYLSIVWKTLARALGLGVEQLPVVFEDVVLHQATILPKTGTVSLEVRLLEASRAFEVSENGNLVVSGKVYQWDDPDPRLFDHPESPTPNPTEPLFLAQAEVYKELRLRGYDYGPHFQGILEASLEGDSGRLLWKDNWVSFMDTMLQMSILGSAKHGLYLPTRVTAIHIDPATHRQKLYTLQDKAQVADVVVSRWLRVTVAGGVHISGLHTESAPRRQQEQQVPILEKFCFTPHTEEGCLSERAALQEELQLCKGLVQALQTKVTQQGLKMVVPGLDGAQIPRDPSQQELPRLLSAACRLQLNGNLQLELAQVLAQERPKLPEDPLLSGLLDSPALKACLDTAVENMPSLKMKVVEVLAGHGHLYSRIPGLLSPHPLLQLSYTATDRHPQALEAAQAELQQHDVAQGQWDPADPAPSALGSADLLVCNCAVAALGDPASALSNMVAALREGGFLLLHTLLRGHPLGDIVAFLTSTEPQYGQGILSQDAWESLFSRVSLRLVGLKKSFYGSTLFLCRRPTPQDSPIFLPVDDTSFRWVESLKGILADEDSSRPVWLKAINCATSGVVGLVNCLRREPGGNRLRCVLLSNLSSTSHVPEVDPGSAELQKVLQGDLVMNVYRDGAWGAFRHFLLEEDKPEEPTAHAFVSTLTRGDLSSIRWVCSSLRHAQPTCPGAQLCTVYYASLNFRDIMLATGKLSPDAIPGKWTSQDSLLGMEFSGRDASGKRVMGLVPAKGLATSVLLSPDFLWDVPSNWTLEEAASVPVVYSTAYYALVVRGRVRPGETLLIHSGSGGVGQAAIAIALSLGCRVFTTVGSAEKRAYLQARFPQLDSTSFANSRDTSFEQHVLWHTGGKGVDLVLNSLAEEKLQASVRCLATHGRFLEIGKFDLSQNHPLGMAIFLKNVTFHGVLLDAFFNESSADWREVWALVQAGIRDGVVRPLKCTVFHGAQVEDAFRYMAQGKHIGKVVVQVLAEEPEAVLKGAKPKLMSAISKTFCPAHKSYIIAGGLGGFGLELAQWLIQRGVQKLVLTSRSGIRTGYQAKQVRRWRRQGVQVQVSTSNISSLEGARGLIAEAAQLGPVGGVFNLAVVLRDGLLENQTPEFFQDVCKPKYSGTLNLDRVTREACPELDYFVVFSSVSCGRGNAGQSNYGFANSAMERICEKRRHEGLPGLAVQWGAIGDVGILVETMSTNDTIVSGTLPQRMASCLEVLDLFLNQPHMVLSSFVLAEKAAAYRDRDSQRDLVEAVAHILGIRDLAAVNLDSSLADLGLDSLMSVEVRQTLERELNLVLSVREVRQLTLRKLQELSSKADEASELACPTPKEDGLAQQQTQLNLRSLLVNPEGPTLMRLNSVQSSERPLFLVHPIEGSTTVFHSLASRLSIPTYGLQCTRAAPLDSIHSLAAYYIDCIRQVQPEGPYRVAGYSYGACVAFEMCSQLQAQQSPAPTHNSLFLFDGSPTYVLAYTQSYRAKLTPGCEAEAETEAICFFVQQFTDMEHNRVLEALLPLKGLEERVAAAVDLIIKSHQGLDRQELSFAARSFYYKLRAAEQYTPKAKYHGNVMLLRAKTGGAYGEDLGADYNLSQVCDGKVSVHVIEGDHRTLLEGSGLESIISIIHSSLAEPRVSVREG
# measurement_notes: FAS thioesterase domain inhibitors, dose response, biochemical, endpoint fluorescence intensity, uHTS hits (AID 624327);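 also: fluorescence from hydrolysis of an O-methyl fluorescein acyl ester substrate by the enzyme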
# Assay type: functional
Active and inactive are the calls of the source.
# valid calls are Yes (active), No (inactive); nothing else

> print(dat)
                                   compound  class.assignment
1  CC1CCCCN1C(=O)COC(=O)c1cc([N+](=O)[O-])ccc1N1CCOCC1 (configuration not stated)               Yes
2  CCOC(=O)C1CCN(C(=O)c2cc3cc4ccc(C)cc4nc3o2)CC1               Yes
3  O=C(NCCCc1ccccc1)c1cc([N+](=O)[O-])ccc1Cl               Yes
4  CCOC(=O)c1sc(N2C(=O)C(O)=C(C(=O)c3ccco3)C2c2ccc([N+](=O)[O-])cc2)nc1C (configuration not stated)               Yes
5  CCc1cccc(CC)c1NC(=O)/C(C#N)=C/c1ccccc1C(F)(F)F               Yes
6  COc1cc([N+](=O)[O-])cc(/C=N/NC(=O)c2cncc(Br)c2)c1O               Yes
7  O=C(COC(=O)c1cc([N+](=O)[O-])ccc1N1CCOCC1)NC1CCCCC1               Yes
8  CC(C)CCNC(=O)C1CC(c2cccc([N+](=O)[O-])c2)=NO1 (configuration not stated)               Yes

Lab note: next compound to report on.
Data request: Recorded test call requested for CC(=O)c1ccc(N2CCN(S(=O)(=O)c3ccc(-c4cnc(C5CC5)o4)cc3)CC2)cc1
Data returned: No

* * *

# system_tested: Streptokinase A (Streptococcus pyogenes serotype M1, UniProt P10520)
# Sequence (P10520 whole entry): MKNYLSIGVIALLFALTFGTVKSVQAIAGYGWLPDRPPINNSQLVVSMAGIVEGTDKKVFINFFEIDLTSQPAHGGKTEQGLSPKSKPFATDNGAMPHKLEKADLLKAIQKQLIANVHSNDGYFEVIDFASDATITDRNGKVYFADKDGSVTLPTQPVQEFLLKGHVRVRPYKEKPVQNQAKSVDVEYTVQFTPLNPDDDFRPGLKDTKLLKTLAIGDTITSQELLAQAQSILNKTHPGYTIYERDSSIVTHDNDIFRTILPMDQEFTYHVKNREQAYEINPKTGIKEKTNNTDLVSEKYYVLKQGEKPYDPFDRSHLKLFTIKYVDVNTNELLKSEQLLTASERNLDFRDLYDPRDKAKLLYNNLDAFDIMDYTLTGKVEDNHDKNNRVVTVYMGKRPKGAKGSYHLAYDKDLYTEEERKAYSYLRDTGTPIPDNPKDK
# measurement_notes: S. pyogenes streptokinase expression inhibitors, potency, dose response, plasminogen activation absorbance, OD405 (AID 1914);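 also: secreted streptokinase activity via plasminogen activation per viability signal from cell pellet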
# Assay type: functional, Streptococcus pyogenes M1 GAS
Activity calls are given as the source filed them.
Entries and their EC50 values follow.

Below: 2 molecules and their reported EC50.
> print(dat)
                               given.smiles            result
1  COc1cccc(/C=N/NC(=O)c2nnn(-c3nonc3N)c2C(C)C)c1OCc1ccc(F)cc1  62.6 µM (active)
2  COC(=O)c1ccc(CSc2cc(C)c3cc(C)cc(C)c3n2)o1  12.6 µM (active)

Data request: Identify the measured EC50 of C#CCn1/c(=N/C(=O)c2cc(Cl)sc2Cl)sc2cc(S(N)(=O)=O)ccc21 for Streptokinase A (Streptococcus pyogenes serotype M1, UniProt P10520).
Data returned: > 150 µM (not active)

Data request: Moving on to the next molecule: CC(=O)Nc1ccc(S(=O)(=O)N2CCN=C2SCc2ccc(C)cc2)cc1
Data returned: > 150 µM (not active)

Data request: Moving on to the next molecule: CCOc1ccc(/C=N/Nc2cc(N3CCOCC3)nc(C)n2)c(O)c1
Data returned: > 150 µM (not active)

Data request: Moving on to the next molecule: O=C(NNC(=O)c1cc(-c2ccc(Cl)cc2)nc2ccccc12)c1csc(N2CCOCC2)n1
Data returned: > 150 µM (not active)

* * *

As an illustration, consider measured IC50 for compounds on Glyceraldehyde-3-phosphate dehydrogenase (Homo sapiens, UniProt P04406).
Sequence (P04406 whole entry): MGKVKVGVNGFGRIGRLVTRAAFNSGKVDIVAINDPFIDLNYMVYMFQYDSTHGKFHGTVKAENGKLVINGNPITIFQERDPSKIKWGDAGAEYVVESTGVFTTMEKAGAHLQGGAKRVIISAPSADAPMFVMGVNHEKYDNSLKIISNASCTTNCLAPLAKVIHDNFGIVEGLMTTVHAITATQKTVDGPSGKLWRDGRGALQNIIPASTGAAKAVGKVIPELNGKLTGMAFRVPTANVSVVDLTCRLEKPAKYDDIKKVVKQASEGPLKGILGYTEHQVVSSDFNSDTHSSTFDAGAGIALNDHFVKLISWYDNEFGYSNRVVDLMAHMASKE

> print(dat)
                                   compound                  result
1  Cc1ccc(S(=O)(=O)Nc2ccc(O)c(C(=O)O)c2)c(C)c1   > 100 µM (not active)
2                 O=C(CC1CCCCC1)Nc1nc[nH]n1  > 10 µM (inconclusive)
3    NNC(=O)c1cc(-c2ccc(Cl)c(Cl)c2Cl)n[nH]1  > 10 µM (inconclusive)
4  O=C(O)CCN1C(=O)/C(=C2\C(=O)N(Cc3ccccc3Cl)c3ccccc32)SC1=S   > 100 µM (not active)
5        CC1(C)CC(=O)c2c(n[nH]c2-c2cccs2)C1  > 10 µM (inconclusive)

# ---- query compound ----
Data request: For O=C(O)C1Nc2c(C(F)(F)F)ccc(Cl)c2C2C=CCC12 (centres undefined) , what is its reported IC50?
Data returned: > 100 µM (not active)

* * *

Entries and their EC50 values follow.
# system_tested: UniProtKB P38532
# Sequence (P38532 whole entry): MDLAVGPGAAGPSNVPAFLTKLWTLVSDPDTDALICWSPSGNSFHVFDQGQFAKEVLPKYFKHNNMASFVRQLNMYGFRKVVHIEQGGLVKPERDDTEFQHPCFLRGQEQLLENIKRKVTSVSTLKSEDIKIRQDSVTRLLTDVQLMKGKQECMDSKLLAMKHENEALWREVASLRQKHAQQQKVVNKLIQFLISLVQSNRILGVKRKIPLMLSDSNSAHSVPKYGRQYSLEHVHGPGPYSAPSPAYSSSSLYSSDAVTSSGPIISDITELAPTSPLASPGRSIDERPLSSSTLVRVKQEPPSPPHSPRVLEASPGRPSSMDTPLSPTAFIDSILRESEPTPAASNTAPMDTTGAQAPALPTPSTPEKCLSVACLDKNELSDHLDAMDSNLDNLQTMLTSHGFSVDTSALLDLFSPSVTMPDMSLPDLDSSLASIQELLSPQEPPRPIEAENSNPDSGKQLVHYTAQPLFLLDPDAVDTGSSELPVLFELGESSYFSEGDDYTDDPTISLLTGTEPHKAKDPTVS
# measurement_notes: inhibition of MG132-induced HSE-luciferase signal, confirmation, cell-based, NIH3T3, luminescence, dose retest (AID 2382);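 also: NIH3T3 fibroblasts with HSF1-driven luciferase reporter stressed by proteasome inhibitor MG132; luminescence from HSF1-driven luciferase expression after 8 hours of MG132 stress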
# Format: functional
Calls of active or inactive are those of the source.

Below: 5 compounds and their reported EC50.
> print(dat)
                                   compound     system.tested                 result
1  Cc1nn(-c2ccccc2)c(N)c1C(O)(CSc1nccn1C)C(F)(F)F (configuration not stated)  UniProtKB P38532  > 195 µM (not active)
2      O=C(Nc1nc2cc3c(cc2s1)OCCO3)C1=COCCO1  UniProtKB P38532       1.74 µM (active)
3  Cc1ccc(-c2cc3c(N=O)c4ccccc4c-3[nH]n2)cc1  UniProtKB P38532       4.95 µM (active)
4  CC(C)(C)c1nn(-c2ccccc2)c2nc(O)c(CNc3ccc4c(c3)OCCO4)cc12  UniProtKB P38532       83.3 µM (active)
5  CCC(C)n1c(SC(C)C#N)nc2ccccc2c1=O (configuration not stated)  UniProtKB P38532  > 195 µM (not active)

Data request: Identify the measured EC50 of O=C(c1c(F)cccc1F)N1CCN(c2ccccc2F)CC1 for UniProtKB P38532.
Data returned: > 195 µM (not active)

Data request: Moving on to the next compound: CCCCC(=O)Nc1cccc(NC(=O)c2cccc(Br)c2)c1
Data returned: > 195 µM (not active)

Data request: Moving on to the next compound: Cc1cc(N/N=C/c2ccc(O)c(C)c2O)nc(-c2ccccc2O)n1
Data returned: 3.71 µM (active)

* * *

Entries and their EC50 values follow.
# system_tested: Protein RecA (Mycobacterium tuberculosis, UniProt P9WHJ3)
# measurement_notes: Fluorescence Cell-Free Homogeneous Dose Retest to Identify Inhibitors of RecA-Intein Splicing Activity. [Related pubchem assays (depositor defined):AID2097, AID2223, AID489010, AID492950]
# Assay type: functional
Active and inactive are the calls of the source.

> print(dat)
                                   compound                   result
1  N#C/C(=C\c1cccc(NC(=O)c2ccccc2Cl)c1)C(=O)NCCc1ccccc1         11.2 µM (active)
2  Cc1ccc(C(C[N+](=O)[O-])c2c(C)[nH]n(-c3ccccc3)c2=O)cc1 (stereo not given)         3.16 µM (active)
3  O=C(Oc1ccc(Br)cc1)C1CC(=O)N(c2ccc(F)cc2)C1 (stereo not given)         11.8 µM (active)
4  N#CC1=C(N)Oc2[nH]nc(-c3cccs3)c2C1c1ccsc1 (stereo not given)        0.672 µM (active)
5  C/C(CC(=O)N1CCN(C=O)CC1)=N\NC(=O)c1cccc([N+](=O)[O-])c1         1.99 µM (active)
6  Cc1cc(N/N=C/c2ccc(O)c(C)c2O)nc(-c2ccccc2O)n1  > 380 µM (inconclusive)
7  COc1ccc(-c2oc(NC(=O)CCl)c(C#N)c2-c2ccc(OC)cc2)cc1         0.67 µM (active)
8  CCCc1nn(C)c2c1C(c1cccnc1)C(C#N)=C(N)O2 (stereo not given)         3.83 µM (active)

Data request: For NS(=O)(=O)c1ccc(N=Nc2ccc(O)nc2O)cc1 , what is its reported EC50?
Data returned: 4.4 µM (active)

Data request: Moving on to the next compound: CCc1cccc(CC)c1NC(=O)/C(C#N)=C/c1ccccc1C(F)(F)F
Data returned: 11.7 µM (active)
